Measurement record for Cannabinoid receptor 1 (Homo sapiens, UniProt P21554); quantity recorded: Ki.
Your answer should be a plain number; it is taken to be in nM.

Ask: Item under review: O=C(N[C@@H]1CCCC[C@H]1O)c1cnc(OCC2CC2)c(-c2ccc(Cl)cc2Cl)c1 . Reported Ki?
Reply: 122

Ask: Item under review: N#Cc1ccc(-c2cc(C(=O)N[C@@H]3CCCC[C@H]3O)cnc2OCC2CC2)cc1 . Reported Ki?
Reply: 23.6

Ask: Item under review: COc1ccc(-c2cc(C(=O)N[C@@H]3CCCC[C@H]3O)cnc2OCC2CC2)cc1 . Reported Ki?
Reply: 66.4

Ask: Item under review: O=C(N[C@@H]1CCCC[C@H]1O)c1cnc(OCC2CC2)c(-c2ccc(Cl)cc2)n1 . Reported Ki?
Reply: 25.8

Ask: Item under review: O=C(N[C@@H]1CCCC[C@H]1O)c1cnc(OCc2ccccc2)c(-c2ccc(Cl)cc2)c1 . Reported Ki?
Reply: 40.2

---

biological target: Cannabinoid receptor 1 (Homo sapiens)
Sequence (P21554 whole entry): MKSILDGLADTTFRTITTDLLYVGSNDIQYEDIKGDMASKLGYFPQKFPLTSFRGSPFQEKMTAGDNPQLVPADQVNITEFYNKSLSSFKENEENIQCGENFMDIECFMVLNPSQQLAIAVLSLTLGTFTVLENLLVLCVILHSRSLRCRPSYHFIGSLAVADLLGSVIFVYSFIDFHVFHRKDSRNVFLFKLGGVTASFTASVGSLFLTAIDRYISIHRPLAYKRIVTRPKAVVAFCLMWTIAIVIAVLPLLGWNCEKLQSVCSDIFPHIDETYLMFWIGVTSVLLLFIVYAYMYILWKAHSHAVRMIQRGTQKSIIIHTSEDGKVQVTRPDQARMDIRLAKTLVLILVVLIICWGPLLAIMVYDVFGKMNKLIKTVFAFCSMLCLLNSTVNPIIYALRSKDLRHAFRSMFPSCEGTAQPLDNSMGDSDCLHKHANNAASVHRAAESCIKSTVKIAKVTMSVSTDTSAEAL
Hi there, I'd appreciate the recorded pKi for every entry that follows.
Here pKi is given on a logarithmic scale as minus log10 of the concentration in mol/L.

Ask: Item under review: CC(C)Oc1ncc(C(=O)N[C@@H]2CCCC[C@H]2O)cc1-c1ccc(Cl)cc1 . Reported pKi?
Reply: 5.97

Ask: Item under review: O=C(N[C@@H]1CCCC[C@H]1O)c1cnc(OCc2cccnc2)c(-c2ccc(Cl)cc2)c1 . Reported pKi?
Reply: 7.63

Ask: Item under review: O=C(N[C@@H]1CCCC[C@H]1O)c1cnc(OCc2ccncc2)c(-c2ccc(Cl)cc2)c1 . Reported pKi?
Reply: 7.23

Ask: Item under review: CCCCOc1ncc(C(=O)N[C@@H]2CCCC[C@H]2O)cc1-c1ccc(Cl)cc1 . Reported pKi?
Reply: 7.36

Ask: Item under review: O=C(N[C@@H]1CCCC[C@H]1O)c1cnc(OC2CCC2)c(-c2ccc(Cl)cc2)c1 . Reported pKi?
Reply: 6.68

Ask: Item under review: O=C(N[C@@H]1CCCC[C@H]1O)c1cnc(OC2CCCC2)c(-c2ccc(Cl)cc2)c1 . Reported pKi?
Reply: 6.43

Ask: Item under review: O=C(N[C@@H]1CCCC[C@H]1O)c1cnc(OCc2ncccn2)c(-c2ccc(Cl)cc2)c1 . Reported pKi?
Reply: 7.29

Ask: Item under review: O=C(N[C@@H]1CCCC[C@H]1O)c1cnc(OCC(F)(F)F)c(-c2ccc(Cl)cc2)c1 . Reported pKi?
Reply: 7.91

Ask: Item under review: O=C(N[C@@H]1CCCC[C@H]1O)c1cnc(Oc2ccccc2)c(-c2ccc(Cl)cc2)c1 . Reported pKi?
Reply: 5.78

Ask: Item under review: Cc1cc(COc2ncc(C(=O)N[C@@H]3CCCC[C@H]3O)cc2-c2ccc(Cl)cc2)on1 . Reported pKi?
Reply: 7.97

Ask: Item under review: O=C(N[C@@H]1CCCC[C@@H]1O)c1cnc(OCC2CC2)c(-c2ccc(Cl)cc2)c1 . Reported pKi?
Reply: 6.73

Ask: Item under review: O=C(N[C@H]1CCCC[C@@H]1O)c1cnc(OCC2CC2)c(-c2ccc(Cl)cc2)c1 . Reported pKi?
Reply: 6.61

Ask: Item under review: COCCOc1ncc(C(=O)N[C@@H]2CCCC[C@H]2O)cc1-c1ccc(Cl)cc1 . Reported pKi?
Reply: 8.29

Ask: Item under review: O=C(N[C@@H]1CCCC[C@H]1O)c1cnc(OCC2CC2)c(-c2cc(C(F)(F)F)ccc2Cl)c1 . Reported pKi?
Reply: 7.17

Ask: Item under review: O=C(N[C@@H]1CCCC[C@H]1O)c1cnc(OCC2CC2)c(-c2ccc(F)cc2)c1 . Reported pKi?
Reply: 7.37
